# targetDesc: Adenosine receptor A3 (Homo sapiens, UniProt P0DMS8)
# Sequence (P0DMS8 whole entry): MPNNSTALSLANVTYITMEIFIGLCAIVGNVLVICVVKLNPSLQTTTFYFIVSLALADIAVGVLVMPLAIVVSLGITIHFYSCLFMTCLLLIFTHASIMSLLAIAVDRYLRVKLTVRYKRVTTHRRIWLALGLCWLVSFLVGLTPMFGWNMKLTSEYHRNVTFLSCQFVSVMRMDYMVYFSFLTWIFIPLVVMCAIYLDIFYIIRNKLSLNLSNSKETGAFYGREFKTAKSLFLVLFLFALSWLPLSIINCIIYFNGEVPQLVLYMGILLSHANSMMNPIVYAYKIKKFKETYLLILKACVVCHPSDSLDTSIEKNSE
# test: Displacement of [3H]HEMADO from human recombinant adenosine A3 receptor expressed in CHO cells
observationType: pKi
Please note pKi is a logarithmic value: minus log10 of concentration in mol/L. Answer with that number alone.

Asked: Dear colleague, I am looking for the recorded pKi of the following molecule: OC[C@H]1O[C@@H](n2cnc3c(NC4CC5CCC4C5)nc(Cl)nc32)[C@H](O)[C@@H]1O (mixture of isomers)
Given back: 6.89

Asked: Dear colleague, I am looking for the recorded pKi of the following molecule: C[C@@]1(O)[C@H](O)[C@@H](CCl)O[C@H]1n1cnc2c(NC3CC4CCC3C4)nc(Cl)nc21 (mixture of isomers)
Given back: 5.23

Asked: Dear colleague, I am looking for the recorded pKi of the following molecule: O[C@@H]1[C@H](O)[C@@H](CCl)O[C@H]1n1cnc2c(NC3CC4CCC3C4)nc(Cl)nc21 (mixture of isomers)
Given back: 5.85

Asked: Dear colleague, I am looking for the recorded pKi of the following molecule: `C[C@@]1(O)[C@H](O)[C@@H](CSc2ccccc2F)O[C@H]1n1cnc2c(NC3CCCC3)ncnc21`
Given back: 5.84

Asked: Dear colleague, I am looking for the recorded pKi of the following molecule: O[C@@H]1[C@H](O)[C@@H](CCl)O[C@H]1n1cnc2c(NC3CC4CCC3C4)ncnc21 (mixture of isomers)
Given back: 5.89

Asked: Dear colleague, I am looking for the recorded pKi of the following molecule: OC[C@H]1O[C@@H](n2cnc3c(NC4CC5CCC4C5)ncnc32)[C@H](O)[C@@H]1O (mixture of isomers)
Given back: 7.00

Asked: Dear colleague, I am looking for the recorded pKi of the following molecule: `C[C@@]1(O)[C@H](O)[C@@H](CCl)O[C@H]1n1cnc2c(NC3CCCC3)ncnc21`
Given back: 5.17
